# assay details: basal RPMI8226 mitochondrial membrane potential changes, profiling panel, cell-based, JC-1 fluorescence, 24 h, 100 nL compound (AID 1169); further: test concentration not given here
# cond: RPMI8226 myeloma, JC-1 mitochondrial potential fluorescence, higher = more signal
readout: z-score
Keep it simple and answer with nothing but the number.

molecule | z-score
COC(=O)[C@@]1(Cc2ccccc2)[C@H]2c3cc(C(=O)N(C)C)n(CCSCCO)c3C[C@H]2CN1C(=O)c1ccccc1 | 0.354
COc1ccc(C(O)C2C=CC3C(=O)N(c4ccccc4)C(=O)C3N2Nc2ccccc2F)cc1OCc1ccccc1 (stereo not given) | -0.75
COC(=O)[C@@]1(Cc2ccc(F)cc2)[C@H]2c3cc(C(=O)N4CCCC4)n(Cc4cc(C)n(C)n4)c3C[C@H]2CN1C(=O)c1ccccc1 | -0.0438
C=CCNC(=O)[C@@H]1[C@H]2C(=O)O[C@H](c3ccccc3)[C@H](c3ccccc3)N2[C@H](c2ccc(OCCO)cc2)[C@@]12C(=O)Nc1ccc(C#Cc3ccc(OC)cc3)cc12 | -0.592
[N-]=[N+]=NCc1ccccc1[C@@H]1OC(c2ccc(OCCCO)cc2)=N[C@]1(CCS(=O)(=O)c1ccccc1)C(=O)NCCN1CCOCC1 | 0.127
Cc1ccc(S[C@]2(C(=O)NCC(F)(F)F)CC(=O)N(C(C)C)[C@@H]2c2ccc(CO)cc2I)cc1 | -0.815
CCOC(=O)[C@H]1CC=C2CC1C(=O)N1CCC[C@@H]1[C@@H]2O[Si](C)(C)C(C)(C)C (stereo not given in full) | -1.06
COc1ccc([Si](C)(C)[C@H]2[C@H](CCO)O[C@@]3(C(=O)N(Cc4ccc(N5C(=O)COc6ccccc65)cc4)c4ccccc43)[C@@H]2C)cc1 | -1.07
COc1cc(CO)cc(I)c1O[C@H]1C=C(C(=O)NCCO)C[C@@H](N(CCN2CCOCC2)C(=O)C2CCOC2)[C@@H]1O (stereo not given in full) | 0.0404
COc1ccc(COC2OC[C@]3(C)[C@H]4C5=C(CN3C(=O)OC(C)(C)C)[C@H](C)C(CO)C(CO)C5CC[C@@H]24)cc1 (stereo not given in full) | 0.429

Now for another entry.
Any idea what its z-score is? The molecule is `C=C(CCCC)C(=O)CC[C@@H](OC(=O)c1cccnc1)c1ccc(CO)o1`
0.736

* * *

# assay details: basal MM1S mitochondrial membrane potential changes, profiling panel, cell-based, JC-1 fluorescence, 24 h, 100 nL compound (AID 1170); further: test concentration not given here
# cond: higher = more signal
Label label 1 when z-score is at or above -1; otherwise label label 0.

// known answers, use as guide
compound | discrete label
C=CCOC(=O)[C@@H]1[C@H]2C(=O)O[C@H](c3ccccc3)[C@H](c3ccccc3)N2[C@H](c2ccc(OCCOC(=O)[C@@H]3C[C@@H]4C(=O)N[C@@H](CCCCN(C)C)C(=O)N4[C@@H]3c3ccc(O)cc3)cc2)[C@@]12C(=O)Nc1ccc(I)cc12 | label 0
Cc1ccc(C(C)CC(O)C2C=CC3C(=O)N(C)C(=O)C3N2NC(=O)OC(C)(C)C)o1 (stereo unspecified) | label 1
COC(=O)[C@@]1(Cc2ccc(OC)cc2)[C@H]2c3cc(C(=O)N(C)C)n(CCN4CNCC4=O)c3C[C@H]2CN1C(=O)c1ccccc1 | label 0

Evaluate `C=CCN1C(=O)[C@]2(O[C@H](CCO)[C@@H]([Si](C)(C)c3ccc(OC)cc3)[C@@H]2C)c2cc(N3CCCCC3=O)ccc21` : z-score at minimum -1?
label 0

Evaluate `CN(C)CCCNC(=O)[C@@]1(C)c2ccccc2C(=O)N(Cc2cc(F)cc(C(F)(F)F)c2)[C@H]1c1ccc(CO)cc1` : z-score at minimum -1?
label 1

Evaluate `C=CCNC(=O)[C@H]1[C@@H]2C(=O)O[C@@H](c3ccccc3)[C@@H](c3ccccc3)N2[C@@H](c2ccc(OCCO)cc2)[C@]12C(=O)N(C(=O)OCCOC)c1ccccc12` : z-score at minimum -1?
label 1
